test system: cornea of rats with dry eye syndrome (ELGE); test: Corneal permeability of fluorescent dye (corneal damage) in ELGE rats with dry eye syndrome; format: in vivo, rat; conditions: Table 6, study of YDE-001 to YDE-028, 3 mg/ml, 5 μl/eye twice daily, day 14
Square brackets hold non-standard residues; d marks the D form. Peptide text beside a SMILES is read from it. ξ: configuration not given here. Hyp = O=C(O)[C@@H]1C[C@@H](O)CN1; Ile(3ξ) = CCC(C)[C@H](N)C(=O)O; hSer = N[C@@H](CCO)C(=O)O
quantityMeasured: Permeability of fluorescent dye (%)

compound	tgt	measuredNumber
CC(C)C[C@H](NC(=O)[C@H](Cc1c[nH]cn1)NC(=O)[C@H](CC(=O)O)NC(=O)[C@H](CCC(N)=O)NC(=O)CNC(=O)[C@@H]1C[C@@H](O)CN1)C(=O)N[C@@H](C)C(=O)NCC(=O)N1CCC[C@H]1C(=O)N[C@@H](CCCCN)C(=O)O [YDE-022] (H-[Hyp]GQDHLAGPK-OH)	cornea of rats with dry eye syndrome (ELGE)	47.82
CC(C)C[C@H](NC(=O)CNC(=O)[C@H](CCC(N)=O)NC(=O)[C@H](CCC(N)=O)NC(=O)CNC(=O)[C@@H]1C[C@@H](O)CN1)C(=O)N[C@@H](C)C(=O)NCC(=O)N1CCC[C@H]1C(=O)N[C@@H](CCCCN)C(=O)O [YDE-003] (H-[Hyp]GQQGLAGPK-OH)	cornea of rats with dry eye syndrome (ELGE)	40.45
CCC(C)[C@H](NC(=O)[C@H](CC(=O)O)NC(=O)[C@H](CCC(N)=O)NC(=O)CNC(=O)[C@@H]1C[C@@H](O)CN1)C(=O)N[C@@H](CC(C)C)C(=O)N[C@@H](C)C(=O)NCC(=O)N1CCC[C@H]1C(=O)N[C@@H](CCCCN)C(=O)O (stereo partly shown) [YDE-016] (H-[Hyp]GQD[Ile(3ξ)]LAGPK-OH)	cornea of rats with dry eye syndrome (ELGE)	24.57
CC(C)C[C@H](NC(=O)CNC(=O)[C@H](CCO)NC(=O)[C@H](CCC(N)=O)NC(=O)CNC(=O)[C@@H]1C[C@@H](O)CN1)C(=O)N[C@@H](C)C(=O)NCC(=O)N1CCC[C@H]1C(=O)N[C@@H](CCCCN)C(=O)O [YDE-026] (H-[Hyp]GQ[hSer]GLAGPK-OH)	cornea of rats with dry eye syndrome (ELGE)	22.63

====

system: cornea of rats with dry eye syndrome (ELGE); assay: Corneal permeability of fluorescent dye (corneal damage) in ELGE rats with dry eye syndrome; type: in vivo, rat; conditions: Table 7, study of YDE-029 to YDE-043, 3 mg/ml, 5 μl/eye twice daily, day 14
Square brackets hold non-standard residues; d marks the D form. Peptide text beside a SMILES is read from it. Pro(4,4-Me2) = CC1(C)CN[C@H](C(=O)O)C1; Pro(4-oxo) = O=C1CN[C@H](C(=O)O)C1; cisHyp = O=C(O)[C@@H]1C[C@H](O)CN1; Hyp = O=C(O)[C@@H]1C[C@@H](O)CN1; pGlu = O=C1CC[C@@H](C(=O)O)N1
Permeability of fluorescent dye values by entry
quantityMeasured: Permeability of fluorescent dye (%)

compound	tgt	measuredNumber
CC(C)C[C@H](NC(=O)[C@H](CCC(N)=O)NC(=O)CNC(=O)[C@@H]1C[C@@H](O)CN1)C(=O)NCC(=O)O [YDE-043] (H-[Hyp]GQLG-OH)	cornea of rats with dry eye syndrome (ELGE)	19.04
CC(C)C[C@H](NC(=O)CNC(=O)[C@H](CC(C)C)NC(=O)[C@H](CCC(N)=O)NC(=O)CNC(=O)[C@@H]1C[C@@H](O)CN1)C(=O)O [YDE-042] (H-[Hyp]GQLGL-OH)	cornea of rats with dry eye syndrome (ELGE)	20.72
CC(C)C[C@H](NC(=O)CNC(=O)[C@H](CC(C)C)NC(=O)[C@H](CCC(N)=O)NC(=O)CNC(=O)[C@@H]1CC(=O)CN1)C(=O)N[C@@H](C)C(=O)NCC(=O)N1CCC[C@H]1C(=O)N[C@@H](CCCCN)C(=O)O [YDE-035] (H-[Pro(4-oxo)]GQLGLAGPK-OH)	cornea of rats with dry eye syndrome (ELGE)	27.62
CC(C)C[C@H](NC(=O)CNC(=O)[C@H](CC(C)C)NC(=O)[C@H](CCC(N)=O)NC(=O)CNC(=O)[C@@H]1C[C@@H](O)CN1)C(=O)N[C@@H](C)C(=O)NCC(=O)N1CCC[C@H]1C(=O)N[C@@H](Cc1ccc(O)cc1)C(=O)O [YDE-029] (H-[Hyp]GQLGLAGPY-OH)	cornea of rats with dry eye syndrome (ELGE)	63.45
CC(C)C[C@H](NC(=O)CNC(=O)[C@H](CC(C)C)NC(=O)[C@H](CCC(N)=O)NC(=O)CNC(=O)[C@@H]1C[C@H](O)CN1)C(=O)N[C@@H](C)C(=O)NCC(=O)N1CCC[C@H]1C(=O)N[C@@H](CCCCN)C(=O)O [YDE-034] (H-[cisHyp]GQLGLAGPK-OH)	cornea of rats with dry eye syndrome (ELGE)	32.17
CC(C)C[C@H](NC(=O)CNC(=O)[C@H](CC(C)C)NC(=O)[C@H](CCC(N)=O)NC(=O)CNC(=O)[C@@H]1CCC(=O)N1)C(=O)N[C@@H](C)C(=O)NCC(=O)N1CCC[C@H]1C(=O)N[C@@H](CCCCN)C(=O)O [YDE-036] ([pGlu]GQLGLAGPK-OH)	cornea of rats with dry eye syndrome (ELGE)	57.87
CC(C)C[C@H](NC(=O)CNC(=O)[C@H](CC(C)C)NC(=O)[C@H](CCC(N)=O)NC(=O)CNC(=O)[C@@H]1C[C@@H](O)CN1)C(=O)N[C@@H](C)C(=O)NCC(=O)N1CCC[C@H]1C(=O)N[C@@H](CCC(N)=O)C(=O)O [YDE-032] (H-[Hyp]GQLGLAGPQ-OH)	cornea of rats with dry eye syndrome (ELGE)	58.90
CC(C)C[C@H](NC(=O)CNC(=O)[C@H](CC(C)C)NC(=O)[C@H](CCC(N)=O)NC(=O)CNC(=O)[C@@H]1CC(C)(C)CN1)C(=O)N[C@@H](C)C(=O)NCC(=O)N1CCC[C@H]1C(=O)N[C@@H](CCCCN)C(=O)O [YDE-040] (H-[Pro(4,4-Me2)]GQLGLAGPK-OH)	cornea of rats with dry eye syndrome (ELGE)	18.33

====

experiment: Stability in aqueous solution under long-term storage conditions (related substances); assay type: physicochemical; conditions: 25° C., 75% RH
Square brackets hold non-standard residues; d marks the D form. Peptide text beside a SMILES is read from it. Hyp = O=C(O)[C@@H]1C[C@@H](O)CN1
Catalogue of compounds with associated Amount of related substances (after 12 weeks)
quantityMeasured: Amount of related substances (after 12 weeks) (%)

compound	measuredNumber
CC(C)C[C@H](NC(=O)CNC(=O)[C@H](CO)NC(=O)[C@H](CCC(N)=O)NC(=O)CNC(=O)[C@@H]1C[C@@H](O)CN1)C(=O)N[C@@H](C)C(=O)NCC(=O)N1CCC[C@H]1C(=O)N[C@@H](CCCCN)C(=O)O [YDE-006] (H-[Hyp]GQSGLAGPK-OH)	3.67
COC(=O)C[C@H](NC(=O)[C@H](CCC(N)=O)NC(=O)CNC(=O)[C@@H]1C[C@@H](O)CN1)C(=O)NCC(=O)N[C@@H](CC(C)C)C(=O)N[C@@H](C)C(=O)NCC(=O)N1CCC[C@H]1C(=O)N[C@@H](CCCCN)C(=O)O [YDE-027] (H-[Hyp]GQD(OMe)GLAGPK-OH)	12.74
CC(C)C[C@H](NC(=O)CNC(=O)[C@H](CCCCN)NC(=O)[C@H](CCC(N)=O)NC(=O)CNC(=O)[C@@H]1C[C@@H](O)CN1)C(=O)N[C@@H](C)C(=O)NCC(=O)N1CCC[C@H]1C(=O)N[C@@H](CCCCN)C(=O)O [YDE-005] (H-[Hyp]GQKGLAGPK-OH)	2.97
CC(C)C[C@H](NC(=O)[C@H](Cc1c[nH]cn1)NC(=O)[C@H](CC(=O)O)NC(=O)[C@H](CCC(N)=O)NC(=O)CNC(=O)[C@@H]1C[C@@H](O)CN1)C(=O)N[C@@H](C)C(=O)NCC(=O)N1CCC[C@H]1C(=O)N[C@@H](CCCCN)C(=O)O [YDE-022] (H-[Hyp]GQDHLAGPK-OH)	19.23

====

test system: cornea of rats with dry eye syndrome (ELGE); experiment: Corneal permeability of fluorescent dye (corneal damage) in ELGE rats with dry eye syndrome; assay type: in vivo, rat; conditions: Table 6, study of YDE-001 to YDE-028, 3 mg/ml, 5 μl/eye twice daily, day 14
Square brackets hold non-standard residues; d marks the D form. Peptide text beside a SMILES is read from it. Hyp = O=C(O)[C@@H]1C[C@@H](O)CN1

molecule	Permeability of fluorescent dye (%)
CC(C)C[C@H](NC(=O)[C@H](Cc1ccc(O)cc1)NC(=O)[C@H](CC(=O)O)NC(=O)[C@H](CCC(N)=O)NC(=O)CNC(=O)[C@@H]1C[C@@H](O)CN1)C(=O)N[C@@H](C)C(=O)NCC(=O)N1CCC[C@H]1C(=O)N[C@@H](CCCCN)C(=O)O [YDE-020] (H-[Hyp]GQDYLAGPK-OH)	47.84
CC(C)C[C@H](NC(=O)CNC(=O)[C@H](Cc1cnc[nH]1)NC(=O)[C@H](CCC(N)=O)NC(=O)CNC(=O)[C@@H]1C[C@@H](O)CN1)C(=O)N[C@@H](C)C(=O)NCC(=O)N1CCC[C@H]1C(=O)N[C@@H](CCCCN)C(=O)O [YDE-004] (H-[Hyp]GQHGLAGPK-OH)	35.05
